Origin of values: the Human Domainome abundance scans (Beltran et al. 2025)

B1: POU domain, class 4, transcription factor 2, residues 256 to 327; numbered along this chain, Q12837 (parent)
chain: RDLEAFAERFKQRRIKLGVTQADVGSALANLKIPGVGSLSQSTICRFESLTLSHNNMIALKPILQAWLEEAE

Variants of: B1
Test: abundance fitness (aPCA) (normalised: wild type 0, dead -1); higher = more abundant; growth selection in yeast, the domain comes from the species named
Settings: Homo sapiens
So I've got a bunch of variants here, and I need their abundance fitness values.
Keep it simple and answer with nothing but the number.

The variant identified as L60D registered its abundance fitness at -0.614

The variant identified as E70G registered its abundance fitness at -0.313

The variant identified as F47R registered its abundance fitness at -0.864

The variant identified as S53H registered its abundance fitness at -0.376

The variant identified as L68S registered its abundance fitness at -0.559

The variant identified as E48W registered its abundance fitness at -1.09

The variant identified as L39Y registered its abundance fitness at -0.53

The variant identified as A71F registered its abundance fitness at -0.02

The variant identified as S49W registered its abundance fitness at -0.485

The variant identified as L68D registered its abundance fitness at -0.617

The variant identified as P34G registered its abundance fitness at -0.1
